All values here come from paper PMC10287695.

Target: TGR (Schistosoma mansoni)
Construct: made in house
Sequence (Q962Y6 1-598): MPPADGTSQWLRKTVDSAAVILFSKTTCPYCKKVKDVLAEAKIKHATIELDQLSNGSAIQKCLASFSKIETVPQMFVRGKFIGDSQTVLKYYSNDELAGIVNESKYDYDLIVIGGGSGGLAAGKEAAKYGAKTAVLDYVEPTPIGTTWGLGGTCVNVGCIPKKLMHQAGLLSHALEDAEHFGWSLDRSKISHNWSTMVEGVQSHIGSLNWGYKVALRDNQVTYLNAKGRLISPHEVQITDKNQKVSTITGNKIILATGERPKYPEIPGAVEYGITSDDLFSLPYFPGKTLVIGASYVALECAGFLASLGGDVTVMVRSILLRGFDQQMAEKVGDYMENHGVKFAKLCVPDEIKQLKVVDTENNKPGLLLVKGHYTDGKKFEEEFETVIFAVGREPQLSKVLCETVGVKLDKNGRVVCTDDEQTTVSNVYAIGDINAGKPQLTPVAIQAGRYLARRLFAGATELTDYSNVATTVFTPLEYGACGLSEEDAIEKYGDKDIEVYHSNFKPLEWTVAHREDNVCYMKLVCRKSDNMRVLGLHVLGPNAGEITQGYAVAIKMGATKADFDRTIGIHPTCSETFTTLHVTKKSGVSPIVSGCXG
Test: Time dependence of inhibition
Assay type: biochemical
Parameters: tested at 50 µM
Conditions: panel d Time Dependence; 24 hr; average
PROPERTY_NAME: avg % inhib, 24 hr (%)

[[record]]
compound = "Cc1oc(-c2ccc3c(c2)OCO3)nc1CN[C@@H]1C[C@@H]2C[C@H]([C@H]1C)C2(C)C [Compound 1]"
observed_result = 28.9728

[[record]]
compound = "Cc1oc(-c2ccccc2)nc1CN[C@@H]1C[C@@H]2C[C@H]([C@H]1C)C2(C)C [Compound 3]"
observed_result = 56.6355

[[record]]
compound = "Cc1oc(C2CCCCC2)nc1CN[C@@H]1C[C@@H]2C[C@H]([C@H]1C)C2(C)C [Compound 4]"
observed_result = 87.319

[[record]]
compound = "Cc1oc(-c2ccc3ccccc3c2)nc1CNC1CCCCCC1 [Compound 5]"
observed_result = 73.1913


====

Tested on: TGR in newly transformed schistosomula (NTS)
Test: TGR inhibition in NTS with TRFS-Green fluorescent probe;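 further: untreated reference is NTS exposed to TRFS-Green probe alone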
Format: cell-based, S. mansoni
Conditions: NTS, 24hr, 5 µM
Experimental: TGR inhibition in NTS was assessed using a fluorescent probe TRFS-Green (Medchemexpress)[43]. […] Fluorescence images were obtained using Keyence BZ-X800. The quantification of fluorescence intensity upon the uptake of TRFS-Green by NTS was performed by a fluorescent microplate imager (BioTek Cytation3) (excitation, 438 nm; emission, 538 nm) hourly for 5 h and after 24 h.
Recorded TGR inhibition visualized by TRFS-Green, Average for the following molecules
PROPERTY_NAME: TGR inhibition visualized by TRFS-Green, Average

[[record]]
chemical_string = "C[C@@H]1[C@H]2C[C@@H](C[C@H]1NCc1nc3ccccc3n1C)C2(C)C"
observed_result = 78091

[[record]]
chemical_string = "Cc1oc(C2CCCCC2)nc1C(=O)N[C@@H]1C[C@@H]2C[C@H]([C@H]1C)C2(C)C"
observed_result = 44285

[[record]]
chemical_string = "Cc1oc(C2CCCCC2)nc1CN[C@@H]1C[C@@H]2C[C@H]([C@H]1C)C2(C)C"
observed_result = 29485

[[record]]
chemical_string = "Cc1oc(-c2ccc3c(c2)OCO3)nc1CN[C@@H]1C[C@@H]2C[C@H]([C@H]1C)C2(C)C"
observed_result = 28552

[[record]]
chemical_string = "CCc1ccccc1-c1nc(CN[C@@H]2C[C@@H]3C[C@H]([C@H]2C)C3(C)C)c(C)o1"
observed_result = 29329.8

[[record]]
chemical_string = "C[C@@H]1[C@H]2C[C@@H](C[C@H]1NCc1nc3ccccc3n1C1CCCCCC1)C2(C)C"
observed_result = 47666

